# assay summary: Inhibition of aggregation of human gel-filtered platelets measured by light transmittance method at 37 degrees C.
quantity: IC50 (nM)
Report as a plain number; the unit nM is understood.

O=C(O)CCNC(=O)c1cc2n(n1)CCCN(CCC1CCNCC1)C2=O; 470
O=C(O)CCNC(=O)c1ccc2c(c1)C(=O)N(CCC1CCNCC1)C2; 27

Switching to the query record.
Returns the measured IC50 for the input compound. Input: O=C(NC[C@H](NS(=O)(=O)c1ccccc1)C(=O)O)c1cc2cc(CCC3CCNCC3)sc2s1
8

---

# target under test: Integrin alpha-IIb/beta-3 (Homo sapiens, UniProt P05106+P08514)
# assay summary: Selectivity as determined by the ratio of KDs, resting receptor over activated receptor
# Type: protein-complex assay
Selectivity by entry:

O=C(NC[C@H](NS(=O)(=O)c1ccccc1)C(=O)O)c1cc2cc(OCCC3CCNCC3)ccc2[nH]1; 24
O=C(O)C[C@H](NC(=O)CN1CCC[C@@H](CCC2CCNCC2)C1=O)c1cccnc1; 221
O=C(NC[C@H](NS(=O)(=O)c1ccccc1)C(=O)O)c1ccc2c(c1)C(=O)N(CCC1CCNCC1)C2; 12

Returns the measured Selectivity for the input compound. Input: CC(CC(=O)O)NC(=O)c1ccc2c(c1)C(=O)N(CCC1CCNCC1)C2 (stereo not given)
0.8

Follow-up entry: O=C(NC[C@H](NS(=O)(=O)c1ccccc1)C(=O)O)c1cc2cc(CCC3CCNCC3)sc2s1
23

Follow-up entry: O=C(O)CCNC(=O)c1cc2n(n1)CCCN(CCC1CCNCC1)C2=O
14

---

pKd by entry:
# target under test: Integrin alpha-IIb/beta-3 (Homo sapiens, UniProt P05106+P08514)
# assay summary: Binding affinity to resting form of alpha IIb/beta3 integrin by flow cytometry using fluorescein ligand L-726,745 displacement from human platelets.
# Sequence (P05106 27-788 limits assumed): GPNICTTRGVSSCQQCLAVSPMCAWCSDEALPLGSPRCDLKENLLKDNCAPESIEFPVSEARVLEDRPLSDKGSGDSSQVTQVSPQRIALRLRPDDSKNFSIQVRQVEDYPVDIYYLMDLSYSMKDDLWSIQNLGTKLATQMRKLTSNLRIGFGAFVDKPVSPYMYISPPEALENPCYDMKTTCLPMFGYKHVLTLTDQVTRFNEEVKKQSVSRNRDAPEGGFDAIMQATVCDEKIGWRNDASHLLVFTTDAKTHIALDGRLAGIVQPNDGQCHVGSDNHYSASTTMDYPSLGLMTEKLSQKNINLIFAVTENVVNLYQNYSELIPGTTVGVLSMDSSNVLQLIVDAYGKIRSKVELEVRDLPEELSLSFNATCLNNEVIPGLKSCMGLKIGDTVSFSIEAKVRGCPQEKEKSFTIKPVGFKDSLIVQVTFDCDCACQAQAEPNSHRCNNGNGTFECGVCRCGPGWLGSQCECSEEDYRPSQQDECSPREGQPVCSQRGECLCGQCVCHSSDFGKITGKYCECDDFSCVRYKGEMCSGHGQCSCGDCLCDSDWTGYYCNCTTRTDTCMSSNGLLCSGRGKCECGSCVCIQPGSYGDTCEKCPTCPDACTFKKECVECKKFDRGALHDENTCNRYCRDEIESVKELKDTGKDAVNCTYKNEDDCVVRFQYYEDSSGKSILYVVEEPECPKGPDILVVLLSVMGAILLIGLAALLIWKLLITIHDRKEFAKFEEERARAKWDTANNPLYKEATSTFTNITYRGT
# Sequence (P08514 32-887 limits assumed): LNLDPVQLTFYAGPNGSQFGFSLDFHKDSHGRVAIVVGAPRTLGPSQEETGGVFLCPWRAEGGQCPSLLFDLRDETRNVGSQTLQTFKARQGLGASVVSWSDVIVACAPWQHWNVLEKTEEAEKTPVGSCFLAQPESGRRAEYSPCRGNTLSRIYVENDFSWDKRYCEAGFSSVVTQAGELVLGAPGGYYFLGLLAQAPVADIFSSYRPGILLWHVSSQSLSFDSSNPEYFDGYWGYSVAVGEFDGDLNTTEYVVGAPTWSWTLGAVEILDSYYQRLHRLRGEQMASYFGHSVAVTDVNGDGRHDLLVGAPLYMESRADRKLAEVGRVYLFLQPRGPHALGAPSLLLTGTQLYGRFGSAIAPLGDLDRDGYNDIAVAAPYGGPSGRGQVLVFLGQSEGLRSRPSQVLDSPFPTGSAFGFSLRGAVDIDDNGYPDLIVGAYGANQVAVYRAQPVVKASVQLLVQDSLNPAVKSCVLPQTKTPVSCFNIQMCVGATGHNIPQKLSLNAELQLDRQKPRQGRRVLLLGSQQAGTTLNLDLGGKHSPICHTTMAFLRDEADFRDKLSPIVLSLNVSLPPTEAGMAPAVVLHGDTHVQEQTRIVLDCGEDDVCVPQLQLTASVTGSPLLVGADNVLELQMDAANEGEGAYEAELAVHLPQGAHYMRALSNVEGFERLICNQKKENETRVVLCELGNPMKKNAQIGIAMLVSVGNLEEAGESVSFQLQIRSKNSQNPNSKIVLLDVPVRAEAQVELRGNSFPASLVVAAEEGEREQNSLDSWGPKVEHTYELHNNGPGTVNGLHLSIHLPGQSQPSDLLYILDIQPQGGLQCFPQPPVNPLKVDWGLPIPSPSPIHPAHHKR
# Sequence (P08514 891-1039 limits assumed): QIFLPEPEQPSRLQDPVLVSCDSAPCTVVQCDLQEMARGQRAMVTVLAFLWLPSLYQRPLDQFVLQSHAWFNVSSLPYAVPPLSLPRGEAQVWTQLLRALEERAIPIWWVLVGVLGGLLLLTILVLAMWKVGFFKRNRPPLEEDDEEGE
To interpret pKd, take it as minus log10 of a concentration measured in moles per litre.

Here is how some molecules turned out for pKd.
C[C@H](CC(=O)O)NC(=O)CN1CCC[C@@H](CCC2CCNCC2)C1=O; 6.19
C#C[C@H](CC(=O)O)NC(=O)CN1CCC[C@@H](CCc2ccnc(N)c2)C1=O; 6.47
O=C(NC[C@H](NS(=O)(=O)c1ccccc1)C(=O)O)c1ccc(OCCC2CCNCC2)cc1; 8.62
O=C(O)CCNC(=O)c1ccc2c(c1)C(=O)N(CCC1CCNCC1)C2; 6.92
O=C(CN1CCc2ccc(N3CCNCC3)cc2C1=O)NC[C@H](NS(=O)(=O)c1ccccc1)C(=O)O; 7.89
C#C[C@H](CC(=O)O)NC(=O)CN1CCC[C@@H](CCC2CCNCC2)C1=O; 6.68
C#C[C@H](CC(=O)O)NC(=O)C[C@H]1CCCN(CCc2ccnc(N)c2)C1=O; 7.22
C[C@@H](/C=C/CN1CCC[C@@H](CCC2CCNCC2)C1=O)CC(=O)O; 5.64
O=C(NC[C@H](NS(=O)(=O)c1ccccc1)C(=O)O)c1cc2cc(CCC3CCNCC3)sc2s1; 8.68
O=C(O)C[C@H](NC(=O)C[C@H]1CCCN(CCC2CCNCC2)C1=O)c1cccnc1; 7.96

Returns the measured pKd for the input molecule. Input: C#C[C@H](CC(=O)O)NC(=O)c1ccc2c(c1)C(=O)N(CCc1ccnc(N)c1)C2
7.08

Follow-up entry: O=C(CN1CCC[C@@H](CCC2CCNCC2)C1=O)NC[C@H](NS(=O)(=O)c1ccccc1)C(=O)O
7.82
